ΔTm at 10 µM values by entry
# TESTED_TARGET: BMP2KA (Homo sapiens, UniProt Q9NSY1)
# Construct: purchased in-house DSF kinase panel (SGC-style construct names; the trailing letter is the construct ID)
# Sequence (Q9NSY1 38-345): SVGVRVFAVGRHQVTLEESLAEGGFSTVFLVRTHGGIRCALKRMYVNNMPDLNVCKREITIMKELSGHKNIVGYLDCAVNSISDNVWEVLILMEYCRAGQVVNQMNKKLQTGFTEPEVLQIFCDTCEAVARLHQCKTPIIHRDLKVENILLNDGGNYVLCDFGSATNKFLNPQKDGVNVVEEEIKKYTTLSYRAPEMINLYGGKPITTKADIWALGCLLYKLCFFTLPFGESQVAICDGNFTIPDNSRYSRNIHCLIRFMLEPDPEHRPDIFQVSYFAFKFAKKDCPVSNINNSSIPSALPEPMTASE
# ASSAY_DETAILS: DSF Tm panel
# Type: binding
# TEST_CONTEXT: 10 μM compound
MEASURED_QUANTITY: ΔTm at 10 µM (°C)

>>> endpoint_result("O=C(NCc1cccc(Cl)c1)Nc1ccc2cc1OCCOCCNc1ccn3ncc-2c3n1")
8.7
>>> endpoint_result("O=C(NCc1ccc(Cl)cc1)Nc1ccc2cc1OCCOCCNc1ccn3ncc-2c3n1")
9.8
>>> endpoint_result("Cc1ccc(F)cc1CNC(=O)Nc1ccc2cc1OCCOCCNc1ccn3ncc-2c3n1")
9.1
>>> endpoint_result("O=C(NCc1ccc(Cl)cc1F)Nc1ccc2cc1OCCOCCNc1ccn3ncc-2c3n1")
7.5

---

# TESTED_TARGET: MST3A (Homo sapiens)
# Construct: purchased in-house DSF kinase panel (SGC-style construct names; the trailing letter is the construct ID)
# Sequence (Q9Y6E0 whole entry): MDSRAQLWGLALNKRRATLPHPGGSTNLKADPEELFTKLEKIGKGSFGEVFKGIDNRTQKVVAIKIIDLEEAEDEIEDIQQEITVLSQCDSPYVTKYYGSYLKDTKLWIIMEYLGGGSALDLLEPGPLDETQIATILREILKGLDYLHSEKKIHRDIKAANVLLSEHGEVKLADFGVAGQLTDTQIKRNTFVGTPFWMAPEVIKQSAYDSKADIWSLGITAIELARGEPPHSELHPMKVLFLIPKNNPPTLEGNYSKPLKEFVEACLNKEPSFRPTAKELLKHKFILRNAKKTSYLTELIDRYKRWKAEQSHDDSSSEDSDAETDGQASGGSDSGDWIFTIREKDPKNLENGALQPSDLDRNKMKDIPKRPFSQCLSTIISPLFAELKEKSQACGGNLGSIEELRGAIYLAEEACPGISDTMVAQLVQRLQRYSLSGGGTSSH
# ASSAY_DETAILS: DSF Tm panel
# Assay type: binding
# TEST_CONTEXT: 10 μM compound
Quick list: ΔTm at 10 µM per entry.
MEASURED_QUANTITY: ΔTm at 10 µM (°C)

>>> endpoint_result("C[C@H](NC(=O)Nc1ccc2cc1OCCOCCNc1ccn3ncc-2c3n1)c1ccccc1")
-7.8
>>> endpoint_result("COc1cccc(CNC(=O)Nc2ccc3cc2OCCOCCNc2ccn4ncc-3c4n2)c1")
-5.1
>>> endpoint_result("CN1CCN(C(=O)Nc2ccc3cc2OCCOCCNc2ccn4ncc-3c4n2)CC1")
0.4
>>> endpoint_result("Cc1cc(Cl)ccc1CNC(=O)Nc1ccc2cc1OCCOCCNc1ccn3ncc-2c3n1")
0.3
>>> endpoint_result("COc1ccc(CNC(=O)Nc2ccc3cc2OCCOCCNc2ccn4ncc-3c4n2)cc1F")
-6.4
>>> endpoint_result("O=C(NCc1ccc(C(F)(F)F)cc1)Nc1ccc2cc1OCCOCCNc1ccn3ncc-2c3n1")
-4.5
>>> endpoint_result("O=C(NCc1ccc(Cl)cc1)Nc1ccc2cc1OCCOCCNc1ccn3ncc-2c3n1")
0.7
>>> endpoint_result("O=C(NCc1ccccc1Cl)Nc1ccc2cc1OCCOCCNc1ccn3ncc-2c3n1")
0.7
>>> endpoint_result("O=C(NCc1ccc(Cl)cc1F)Nc1ccc2cc1OCCOCCNc1ccn3ncc-2c3n1")
0.6
>>> endpoint_result("O=C(NCc1ccccc1C(F)(F)F)Nc1ccc2cc1OCCOCCNc1ccn3ncc-2c3n1")
-3.4

---

# TESTED_TARGET: PKMYT1A (Homo sapiens)
# Construct: purchased in-house DSF kinase panel (SGC-style construct names; the trailing letter is the construct ID)
# Sequence (Q99640 75-362): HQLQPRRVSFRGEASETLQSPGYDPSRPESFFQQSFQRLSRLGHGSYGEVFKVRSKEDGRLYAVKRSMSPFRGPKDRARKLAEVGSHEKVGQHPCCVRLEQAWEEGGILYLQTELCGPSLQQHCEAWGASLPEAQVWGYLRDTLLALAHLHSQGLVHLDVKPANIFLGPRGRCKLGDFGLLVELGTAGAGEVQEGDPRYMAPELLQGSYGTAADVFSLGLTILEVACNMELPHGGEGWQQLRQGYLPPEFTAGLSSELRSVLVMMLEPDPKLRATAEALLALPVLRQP
# ASSAY_DETAILS: DSF Tm panel
# Format: binding
# TEST_CONTEXT: 10 μM compound
Label scheme for ΔTm at 10 µM: lower than 1 °C is Not fulfilled, 1 °C and above is Fulfilled.

>>> class_label("O=C(NCc1ccc(Cl)cc1F)Nc1ccc2cc1OCCOCCNc1ccn3ncc-2c3n1 [compound 21]")
"Fulfilled"
>>> class_label("COc1cccc(CNC(=O)Nc2ccc3cc2OCCOCCNc2ccn4ncc-3c4n2)c1 [compound 30]")
"Not fulfilled"
>>> class_label("O=C(NCc1ccc(C(F)(F)F)cc1)Nc1ccc2cc1OCCOCCNc1ccn3ncc-2c3n1 [compound 28]")
"Fulfilled"
>>> class_label("COc1cc(CNC(=O)Nc2ccc3cc2OCCOCCNc2ccn4ncc-3c4n2)ccc1F [compound 33]")
"Not fulfilled"
>>> class_label("Cc1ccc(F)cc1CNC(=O)Nc1ccc2cc1OCCOCCNc1ccn3ncc-2c3n1 [compound 26]")
"Not fulfilled"
>>> class_label("COc1ccc(CNC(=O)Nc2ccc3cc2OCCOCCNc2ccn4ncc-3c4n2)cc1 [compound 31]")
"Not fulfilled"
>>> class_label("C[C@H](NC(=O)Nc1ccc2cc1OCCOCCNc1ccn3ncc-2c3n1)c1ccccc1 [compound 34]")
"Not fulfilled"
>>> class_label("O=C(NCc1ccccc1C(F)(F)F)Nc1ccc2cc1OCCOCCNc1ccn3ncc-2c3n1 [compound 27]")
"Not fulfilled"
>>> class_label("O=C(NCc1ccc(Cl)cc1Cl)Nc1ccc2cc1OCCOCCNc1ccn3ncc-2c3n1 [compound 20]")
"Fulfilled"
>>> class_label("Cc1cc(Cl)ccc1CNC(=O)Nc1ccc2cc1OCCOCCNc1ccn3ncc-2c3n1 [compound 23]")
"Fulfilled"
>>> class_label("COc1ccccc1CNC(=O)Nc1ccc2cc1OCCOCCNc1ccn3ncc-2c3n1 [compound 29]")
"Not fulfilled"
>>> class_label("CN1CCN(C(=O)Nc2ccc3cc2OCCOCCNc2ccn4ncc-3c4n2)CC1 [compound 35]")
"Not fulfilled"
>>> class_label("O=C(NCc1ccccc1)Nc1ccc2cc1OCCOCCNc1ccn3ncc-2c3n1 [compound 16]")
"Not fulfilled"
>>> class_label("COc1ccc(CNC(=O)Nc2ccc3cc2OCCOCCNc2ccn4ncc-3c4n2)cc1F [compound 32]")
"Not fulfilled"
>>> class_label("O=C(NCc1ccc(Cl)cc1)Nc1ccc2cc1OCCOCCNc1ccn3ncc-2c3n1 [compound 19]")
"Fulfilled"
>>> class_label("O=C(NCc1cccc(Cl)c1)Nc1ccc2cc1OCCOCCNc1ccn3ncc-2c3n1 [compound 18]")
"Fulfilled"
>>> class_label("Cc1cc(Br)ccc1CNC(=O)Nc1ccc2cc1OCCOCCNc1ccn3ncc-2c3n1 [compound 24]")
"Not fulfilled"

---

# TESTED_TARGET: CSNK1DA (Homo sapiens, UniProt P48730)
# Construct: purchased in-house DSF kinase panel (SGC-style construct names; the trailing letter is the construct ID)
# Sequence (P48730 1-294): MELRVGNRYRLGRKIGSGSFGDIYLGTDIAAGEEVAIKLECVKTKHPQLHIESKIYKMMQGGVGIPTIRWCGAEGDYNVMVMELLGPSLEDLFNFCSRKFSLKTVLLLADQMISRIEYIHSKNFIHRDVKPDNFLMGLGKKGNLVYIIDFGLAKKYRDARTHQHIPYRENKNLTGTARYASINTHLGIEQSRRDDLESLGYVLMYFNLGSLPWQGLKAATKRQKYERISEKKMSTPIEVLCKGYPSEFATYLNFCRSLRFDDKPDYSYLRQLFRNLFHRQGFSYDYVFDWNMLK
# ASSAY_DETAILS: DSF Tm panel
# Format: binding
# TEST_CONTEXT: 10 μM compound
MEASURED_QUANTITY: ΔTm at 10 µM (°C)

>>> endpoint_result("COc1cc(CNC(=O)Nc2ccc3cc2OCCOCCNc2ccn4ncc-3c4n2)ccc1F")
0.1
>>> endpoint_result("COc1ccc(CNC(=O)Nc2ccc3cc2OCCOCCNc2ccn4ncc-3c4n2)cc1F")
-0.2
>>> endpoint_result("C[C@H](NC(=O)Nc1ccc2cc1OCCOCCNc1ccn3ncc-2c3n1)c1ccccc1")
-0.1
>>> endpoint_result("O=C(NCc1ccccc1C(F)(F)F)Nc1ccc2cc1OCCOCCNc1ccn3ncc-2c3n1")
-0.5
>>> endpoint_result("O=C(NCc1ccc(Cl)cc1F)Nc1ccc2cc1OCCOCCNc1ccn3ncc-2c3n1")
0
>>> endpoint_result("Cc1cc(Cl)ccc1CNC(=O)Nc1ccc2cc1OCCOCCNc1ccn3ncc-2c3n1")
1.2
>>> endpoint_result("Cc1cc(Br)ccc1CNC(=O)Nc1ccc2cc1OCCOCCNc1ccn3ncc-2c3n1")
0.2
>>> endpoint_result("CN1CCN(C(=O)Nc2ccc3cc2OCCOCCNc2ccn4ncc-3c4n2)CC1")
0.5
>>> endpoint_result("COc1ccc(CNC(=O)Nc2ccc3cc2OCCOCCNc2ccn4ncc-3c4n2)cc1")
0.1
>>> endpoint_result("O=C(NCc1ccc(Cl)cc1)Nc1ccc2cc1OCCOCCNc1ccn3ncc-2c3n1")
0.4
>>> endpoint_result("O=C(NCc1ccc(Cl)cc1Cl)Nc1ccc2cc1OCCOCCNc1ccn3ncc-2c3n1")
0.4
>>> endpoint_result("COc1cccc(CNC(=O)Nc2ccc3cc2OCCOCCNc2ccn4ncc-3c4n2)c1")
0.2
>>> endpoint_result("O=C(NCc1ccccc1)Nc1ccc2cc1OCCOCCNc1ccn3ncc-2c3n1")
0.7
>>> endpoint_result("O=C(NCc1ccc(C(F)(F)F)cc1)Nc1ccc2cc1OCCOCCNc1ccn3ncc-2c3n1")
-0.5
>>> endpoint_result("COc1ccccc1CNC(=O)Nc1ccc2cc1OCCOCCNc1ccn3ncc-2c3n1")
0.2
>>> endpoint_result("Cc1ccc(F)cc1CNC(=O)Nc1ccc2cc1OCCOCCNc1ccn3ncc-2c3n1")
-0.1
>>> endpoint_result("O=C(NCc1cccc(Cl)c1)Nc1ccc2cc1OCCOCCNc1ccn3ncc-2c3n1")
0.4
>>> endpoint_result("O=C(NCc1ccccc1Cl)Nc1ccc2cc1OCCOCCNc1ccn3ncc-2c3n1")
0.6
